- Test system: AncSZ;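 also: 11-residue human phosphosite peptides and single-mutation variants displayed on the E. coli surface, counted by deep sequencing, each peptide's frequency after selection divided by its frequency in the unselected input library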;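 also: frequency after pTyr selection over input frequency; kinase dosed for 20-30% of maximal phosphorylation in three min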
- Assay overview: phosphorylation enrichment, bacterial display (enrichment ratio); higher = better substrate or ligand; peptides without Tyr show the background
Rule: Fulfilled for phosphorylation enrichment not less than 1, Not fulfilled for anything less.

A selection of reference data follows.
| Biosequence | Label class |
| --- | --- |
| TLNVRHESVQA [CEACAM7_Y236_Y236H] | Not fulfilled |
| QRALLYEDALF [UNC13D_Y56_YF] | Fulfilled |
| NTYEKYWPFYQ [GATM_Y103] | Fulfilled |
| FQRITYHNWRH [PDE6B_Y556_R552Q_YF] | Not fulfilled |

Would you say RLAKTYKTTLE [ALB_Y377_E378K] shows phosphorylation enrichment at minimum 1?
Not fulfilled

Would you say MSDVPYVMNRG [ACAT1_Y161_N158D] shows phosphorylation enrichment at minimum 1?
Not fulfilled

Would you say VFAADYFKLLG [ROR2_Y645_YF] shows phosphorylation enrichment at minimum 1?
Not fulfilled

Would you say LSQAKYQIRYR [CRLF1_Y272_F268S] shows phosphorylation enrichment at minimum 1?
Not fulfilled

Would you say KRLAVYQAGAR [APOE_Y180] shows phosphorylation enrichment at minimum 1?
Not fulfilled

Would you say GQDLLYEDEDL [PACS1_Y303_F302L] shows phosphorylation enrichment at minimum 1?
Fulfilled
